Listed compounds paired with reported melting point
measure_name: melting point

1) CSc1nc(N)nc(C(C)C)n1: 127 to 130 °C
2) CCCCCCCc1ccc(C(=O)Oc2ccc(C#N)cc2)cc1: 43 to 46 °C
3) COc1cccc(OC)c1N=C=O: 45 to 47 °C
4) COc1ccc(C=C2SC(=NN=CC(C)C)NC2=O)cc1: 258 to 260 °C
5) CC(C)(C)NC(=O)[C@@H]1CC2CCCCC2CN1 (some centres undefined): 115 to 117 °C
6) S=C(NCCN1CCOCC1)NC1CCCCC1: 125 to 126 °C
7) O=C(O)COc1ccccc1Br: 141 to 145 °C
8) CC1=C(C)C(=O)C(C(CCCCCC(=O)O)c2ccccc2)=C(C)C1=O (centres undefined): 128 °C
9) CCOC(=O)c1c(NC(=S)Nc2ccccc2)sc2c1CCCC2: 189 to 191 °C
10) COc1cc(C2OCC3C(c4ccc(OC(C)=O)c(OC)c4)OCC23)ccc1OC(C)=O (centres undefined): 166 °C
11) Cc1nc(-c2ccc(S(=O)(=O)N(C)C)cc2)c(-c2ccc(S(=O)(=O)N(C)C)cc2)o1: 208 to 211 °C
12) OCc1ccc(I)c(O)c1: 148 °C
13) Nc1ccc(-c2ccccc2)cn1: 135 °C
14) COC(=O)c1ccc(C(=O)CC#N)cc1: 170 to 174 °C

----------
Listed compounds paired with reported melting point
measure_name: melting point

1) COc1ccc(C(N)=NO)c2ccccc12: 175 to 176 °C
2) Cc1cc(C)c(Cc2cnc(NC3=NCCN3)s2)c(C)c1: 192 to 194 °C
3) CC(=O)Nc1ccc(Cl)c(N)c1: 168 to 172 °C

----------
Listed molecules paired with reported melting point
measure_name: melting point

1) COC(=O)c1cc2ccccc2n1C(=O)OC(C)(C)C: 66 to 67 °C
2) O=C1C=C[C@H](CO)O1: 39 to 45 °C
3) OC(c1ccc(Br)cc1)C1CC1 (centres undefined): 57 to 57.5 °C
4) OCc1scc2c1OCCO2: 68 to 69 °C

----------
measure_name: melting point

1. c1ccc(C2Cc3ccccc32)nc1 (centres undefined): 35 to 44 °C
2. N[C@@H](c1ccccc1)c1c(O)ccc2ccccc12: 133 to 137 °C
3. CCOc1cc2c(cc1OCC)C(C)=NCC2: 68 to 71 °C
4. CC(=O)c1[nH]c2ccccc2c1C: 146 to 148 °C

----------
measure_name: melting point

1) Nc1ccc(CCc2ccc(N)cc2)cc1: 137 °C
2) CSC(C)(C)C=NO: 21 °C
3) CN(N)c1cnn(C)c(=O)c1Cl: 131 to 133 °C
4) CCOC(=O)C1=C(C)OC(N)=C(C#N)C1c1ccc2c(c1)CCO2 (stereo unspecified): 160 to 166 °C
5) Ic1ccc(-c2ccc(I)cc2)cc1: 207 °C
6) O=C(Cl)c1cccnc1Sc1ccc(Cl)cc1: 100 to 103 °C

----------
measure_name: melting point (°C)

1. CN(C)C(=O)C(C(F)(F)F)C(F)(F)F: 54
2. CC(=O)OC1(C(C)=O)CCC2C3CC(C(F)(F)F)C4=CC(=O)CCC4(C)C3CCC21C (stereo not given): 206
3. CC(C)OC(=O)C(C)(C)Oc1ccc(C(=O)c2ccc(Cl)cc2)cc1: 80.5
4. COc1ccc(N=C=S)c(OC)c1: 52
5. O=C(c1ccccc1)c1ccc(-c2ccc(Br)cc2)cc1: 157
6. C=CC1(C(C)CCC)C(=O)NC(=O)NC1=O (stereo not given): 90
7. Cc1ccccc1N1CSc2nnc(-c3ccccc3)n2C1: 199
8. Cc1cc(C2CC2)nc(Nc2ccccc2)n1: 75.9
9. O=c1c(Nc2ccccc2)c(Nc2ccccc2)c1=O: 270
10. CCCCCCCCCC(=O)OC1CCC2C3CCC4=CC(=O)CCC4C3CCC12C (stereo not given): 118
11. CCC(c1ccccc1)c1c(O)oc2ccccc2c1=O (stereo not given): 180
12. Cc1cc(O)c(C(C)(C)C)cc1C(C)CC(c1cc(C(C)(C)C)c(O)cc1C)c1cc(C(C)(C)C)c(O)cc1C (stereo not given): 186
13. NC(=O)CCC(=O)O: 155
14. O=C1C(c2ccccn2)=[N+]([O-])c2ccccc21: 182
15. CC(=O)Nc1ccc(C(C)=O)c(C)c1: 139
16. CN(C)CCc1c[nH]c2ccc(O)cc12: 146
17. CCOP(=O)(Cc1ccc(N)cc1)OCC: 93
